biological target: Human CD40 (human, UniProt P25942 21-277); assay: cell-based or functional assay
Sequence (P25942 21-277 limits assumed): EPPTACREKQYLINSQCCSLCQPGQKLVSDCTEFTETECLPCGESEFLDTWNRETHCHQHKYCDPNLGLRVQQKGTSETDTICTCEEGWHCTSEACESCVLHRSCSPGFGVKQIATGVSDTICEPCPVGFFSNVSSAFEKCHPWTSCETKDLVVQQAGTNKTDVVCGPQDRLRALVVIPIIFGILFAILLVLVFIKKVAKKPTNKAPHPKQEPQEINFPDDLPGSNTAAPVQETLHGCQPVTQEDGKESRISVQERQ
Provide the reported Antagonist: Jurkat/Reporter assay (IC50 nM) of each item.
Answers are plain numbers, in nM.

>  <Binder>
huAb1v1CDR2v4 (antibody, V domains shown) VH: EVQLVESGGGLVKPGGSLRLSCAASGFTFSDYGMNWVRQAPGKGLEWIAYISSGRRNIYYADTVKGRFTISRDNAKNSLYLQMNSLRAEDTAVYYCARSWGYFDVWGQGTTVTVSS VL: DIVMTQSPDSLAVSLGERATINCKSSQSLLNRGNQKNYLTWFQQKPGQPPKLLIYWASTRESGVPDRFSGSGSGTDFTLTISSLQAEDVAVYYCQNDYTYPLTFGQGTKLEIK

>  <Meas Value>
563

$$$$

// moving on: another record for Antagonist: Jurkat/Reporter assay (IC50 nM)
// recorded Antagonist: Jurkat/Reporter assay (IC50 nM) for huAb1v1CDR2v3 (antibody, V domains shown) VH: EVQLVESGGGLVKPGGSLRLSCAASGFTFSDYGMNWVRQAPGKGLEWIAYISSGRENIYYADTVKGRFTISRDNAKNSLYLQMNSLRAEDTAVYYCARSWGYFDVWGQGTTVTVSS VL: DIVMTQSPDSLAVSLGERATINCKSSQSLLNRGNQKNYLTWFQQKPGQPPKLLIYWASTRESGVPDRFSGSGSGTDFTLTISSLQAEDVAVYYCQNDYTYPLTFGQGTKLEIK : 219
